# protocol.details: Photostability evaluation
# Type: physicochemical
# assay.conditions: Solid, Control
reported.property: Individual related material (%)

Solved cases below.
## Task Complete the entry with Individual related material for C[C@@H]1CN(C(=O)CC#N)CC=C1c1cc(NC(=O)C2CC2)nc2[nH]ccc12 [Example 1]
## Result 0.11

## Task Complete the entry with Individual related material for C[C@@H]1CN(C(=O)CC#N)CC=C1c1cc(NC(=O)C2CC2)nc2[nH]ccc12 [Example 4]
## Result 0.14

A = C[C@@H]1CN(C(=O)CC#N)CC=C1c1cc(NC(=O)C2CC2)nc2[nH]ccc12 [Example 2]
B = C[C@@H]1CN(C(=O)CC#N)CC=C1c1cc(NC(=O)C2CC2)nc2[nH]ccc12 [Example 5]
C = C[C@@H]1CN(C(=O)CC#N)CC=C1c1cc(NC(=O)C2CC2)nc2[nH]ccc12 [Example 3]
## Task Place the items in sequence of falling Individual related material. I'd appreciate it if you listed the labels in the requested order.
## Result B, A, C
(B: 0.65%, A: 0.11%, C: 0.07%)
